target: BCR-NTRK2 BaF3 cells (Homo sapiens); construct: fused on or other part: P11274 (Breakpoint cluster region protein); assay: BaF3 BCR-NTRK2 cell proliferation assay (ATPlite); conditions: read-out: Inhibition of Cell Proliferation IC50, BCR/BaF3 TrkB
Sequence (Q16620 538-807): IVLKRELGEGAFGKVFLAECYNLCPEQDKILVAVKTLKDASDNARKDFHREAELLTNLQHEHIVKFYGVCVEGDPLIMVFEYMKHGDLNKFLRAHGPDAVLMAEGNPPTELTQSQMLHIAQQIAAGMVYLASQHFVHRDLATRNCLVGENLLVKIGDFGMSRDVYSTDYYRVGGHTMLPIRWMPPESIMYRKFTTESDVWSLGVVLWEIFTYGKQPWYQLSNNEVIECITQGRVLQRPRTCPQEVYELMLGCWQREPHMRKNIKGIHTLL
pIC50: −log10 of the molar value.
attribute-measured: pIC50

Observe how each entry below is paired with its result.
Cc1cnc2[nH]cc(Cc3cnc(Nc4ccc(C(O)(C(F)(F)F)C(F)(F)F)cc4)nc3)c2c1 [Compound P-3031] ... > 8.00
CCc1ccc(Nc2ccc(C(=O)c3c[nH]c4ncnc(NCC(C)C)c34)c(F)n2)cn1 [Compound P-4121] ... > 8.00

Inquiry: Report pIC50 from BCR-NTRK2 BaF3 cells (Homo sapiens) testing of COc1ccc(Nc2ccc(C(=O)c3c[nH]c4ncnc(NC5CCCC5)c34)c(F)n2)cn1 [Compound P-4075]
Reply text: > 8.00

Inquiry: Report pIC50 from BCR-NTRK2 BaF3 cells (Homo sapiens) testing of CCN1CCC(Nc2ncnc3[nH]cc(C(=O)c4ccc(Nc5ccc(OC)nc5)nc4F)c23)CC1 [Compound P-4074]
Reply text: > 7.00

Inquiry: Report pIC50 from BCR-NTRK2 BaF3 cells (Homo sapiens) testing of CNc1ncnc2[nH]cc(C(=O)c3ccc(Nc4ccc(C(F)(F)F)nc4)nc3F)c12 [Compound P-4092]
Reply text: > 8.00

Inquiry: Report pIC50 from BCR-NTRK2 BaF3 cells (Homo sapiens) testing of Cc1cnc2[nH]cc(Cc3cnc(Nc4ccc(C(C)(C)C)cc4)nc3)c2c1 [Compound P-3030]
Reply text: > 8.00

Inquiry: Report pIC50 from BCR-NTRK2 BaF3 cells (Homo sapiens) testing of CCC(CC)Nc1ncnc2[nH]cc(C(=O)c3ccc(Nc4ccc(OC)nc4)nc3F)c12 [Compound P-4077]
Reply text: > 8.00

Inquiry: Report pIC50 from BCR-NTRK2 BaF3 cells (Homo sapiens) testing of CC(C)Nc1ncnc2[nH]cc(C(=O)c3ccc(NC4CCCCC4)nc3F)c12 [Compound P-4101]
Reply text: > 8.00

----------
target: BCR-KIT BaF3 cells (Homo sapiens, UniProt P10721); construct: fused on or other part: P11274 (Breakpoint cluster region protein); assay: BaF3 BCR-KIT cell proliferation assay (ATPlite); conditions: read-out: Inhibition of Cell Proliferation IC50, BCR/BaF3 Kit
Sequence (P10721 589-937): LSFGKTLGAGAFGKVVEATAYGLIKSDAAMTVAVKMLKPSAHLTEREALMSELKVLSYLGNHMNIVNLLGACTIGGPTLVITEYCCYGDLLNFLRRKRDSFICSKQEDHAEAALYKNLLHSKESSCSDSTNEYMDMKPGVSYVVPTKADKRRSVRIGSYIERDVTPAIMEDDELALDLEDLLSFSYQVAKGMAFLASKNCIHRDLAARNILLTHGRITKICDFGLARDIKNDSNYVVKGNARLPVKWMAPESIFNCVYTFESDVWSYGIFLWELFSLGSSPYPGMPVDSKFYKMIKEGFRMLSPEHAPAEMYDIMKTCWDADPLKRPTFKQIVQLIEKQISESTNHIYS
Recorded IC50, one value per entry.

O=C(c1ccc(NC2CCC(F)(F)CC2)nc1Cl)c1c[nH]c2ncnc(NC3CC3)c12 [Compound P-4059] ... > 1000 nM
COc1ccc(Nc2ccc(C(=O)c3c[nH]c4ncnc(NC5CCCC5)c34)c(F)n2)cn1 [Compound P-4075] ... < 100 nM
Fc1nc(NC2CCC(F)(F)CC2)ccc1Cc1c[nH]c2ncc(Cl)cc12 [Compound P-3013] ... > 1000 nM
Cc1ccc(Nc2ccc(Cc3c[nH]c4ncnc(C5CC5)c34)c(F)n2)cn1 [Compound P-4030] ... < 1000 nM
COc1cncc(Nc2ccc(C(=O)c3c[nH]c4ncnc(NC5CCCCC5)c34)c(F)n2)c1 [Compound P-4104] ... > 1000 nM

Inquiry: Recall and state the measured IC50 for CCNc1ncnc2[nH]cc(C(=O)c3ccc(Nc4ccc(CC)nc4)nc3F)c12 [Compound P-4123] .
Reply text: < 100 nM

Inquiry: Recall and state the measured IC50 for COc1cc(Nc2ncc(Cc3c[nH]c4ncc(C)cc34)cn2)ccc1F [Compound P-3022] .
Reply text: < 100 nM

Inquiry: Recall and state the measured IC50 for CCCNc1ncnc2[nH]cc(C(=O)c3ccc(Nc4ccc(C)nc4)nc3F)c12 [Compound P-4114] .
Reply text: < 1000 nM

----------
target: BCR-KIT BaF3 cells (Homo sapiens); construct: fused on or other part: P11274 (Breakpoint cluster region protein); assay: BaF3 BCR-KIT cell proliferation assay (ATPlite); details: read-out: Inhibition of Cell Proliferation IC50, BCR/BaF3 Kit
pIC50: −log10 of the molar value.
Recorded pIC50, one value per entry.

CCOc1ncnc2[nH]cc(Cc3ccc(Nc4cnn(CC)c4)nc3F)c12 [Compound P-4012] ... > 6.00
CC(C)(O)CNc1ncnc2[nH]cc(C(=O)c3ccc(Nc4ccc(C5CC5)nc4)nc3F)c12 [Compound P-4049] ... > 6.00
Fc1nc(NC2CCC(F)(F)CC2)ccc1Cc1c[nH]c2ncnc(NC3CC3)c12 [Compound P-4129] ... > 6.00
COc1ccc(Nc2ccc(Cc3c[nH]c4ncnc(C5CC5)c34)c(F)n2)cn1 [Compound P-4023] ... > 6.00
Cc1cnc2[nH]cc(Cc3ccc(Nc4ccc(C5CC5)nc4)nc3F)c2c1 [Compound P-3050] ... > 6.00

Inquiry: Recall and state the measured pIC50 for CC(C)=CNc1ncnc2[nH]cc(C(=O)c3ccc(NC4CCC(F)(F)CC4)nc3Cl)c12 [Compound P-4047] .
Reply text: < 6.00

Inquiry: Recall and state the measured pIC50 for O=C(c1ccc(NC2CCC(F)(F)CC2)nc1F)c1c[nH]c2ncnc(NCC(F)(F)F)c12 [Compound P-4061] .
Reply text: < 6.00

Inquiry: Recall and state the measured pIC50 for COc1cncc(Nc2ccc(C(=O)c3c[nH]c4ncnc(NC(C)C)c34)c(F)n2)c1 [Compound P-4106] .
Reply text: > 6.00

----------
molecular target: CYP3A4(BFC) (Homo sapiens); assay: CYP3A4(BFC) inhibition; type: in vitro ADME; settings: CYP3A4, substrate BFC; read-out: Cyp IC50 3A4(BFC)
Sequence (P08684 whole entry): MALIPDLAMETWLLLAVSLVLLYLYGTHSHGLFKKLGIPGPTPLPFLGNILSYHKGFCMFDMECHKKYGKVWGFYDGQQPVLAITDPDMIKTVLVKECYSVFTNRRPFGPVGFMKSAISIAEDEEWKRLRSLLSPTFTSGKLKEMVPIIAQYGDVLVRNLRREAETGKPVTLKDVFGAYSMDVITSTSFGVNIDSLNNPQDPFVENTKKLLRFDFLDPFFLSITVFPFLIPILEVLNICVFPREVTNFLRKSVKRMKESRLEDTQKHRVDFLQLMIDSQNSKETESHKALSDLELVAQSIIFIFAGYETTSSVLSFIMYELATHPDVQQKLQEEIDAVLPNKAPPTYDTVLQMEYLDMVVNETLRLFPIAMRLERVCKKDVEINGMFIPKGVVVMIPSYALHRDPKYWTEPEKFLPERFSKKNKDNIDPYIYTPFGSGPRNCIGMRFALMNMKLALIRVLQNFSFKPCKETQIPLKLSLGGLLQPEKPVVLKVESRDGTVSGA
attribute-measured: IC50

Observe how each entry below is paired with its result.
COc1ccc(Nc2ccc(C(=O)c3c[nH]c4ncnc(NC5CCCCC5)c34)c(F)n2)cn1 [Compound P-4082] ... > 10 µM
COc1ccc(Nc2ccc(C(=O)c3c[nH]c4ncnc(NCC(F)(F)F)c34)c(F)n2)cn1 [Compound P-4084] ... > 10 µM
CCc1ccc(Nc2ccc(C(=O)c3c[nH]c4ncnc(N[C@@H](C)c5ccc(F)cc5)c34)c(F)n2)cn1 [Compound P-4097] ... > 10 µM
Clc1cnc2[nH]cc(Cc3cnc(NC4CCCCC4)nc3)c2c1 [Compound P-3001] ... > 10 µM
CCc1ccc(Nc2ccc(C(=O)c3c[nH]c4ncnc(NC5CCC5)c34)c(F)n2)cn1 [Compound P-4095] ... > 10 µM
COc1ccc(Nc2ccc(C(=O)c3c[nH]c4ncnc(C5CC5)c34)c(F)n2)cn1 [Compound P-4022] ... 5 to 10 µM
CCCNc1ncnc2[nH]cc(C(=O)c3ccc(Nc4ccc(CC)nc4)nc3F)c12 [Compound P-4122] ... > 10 µM
CCn1cc(Nc2ccc(Cc3c[nH]c4ncnc(OC)c34)c(F)n2)cn1 [Compound P-4011] ... 5 to 10 µM
CCOc1ncnc2[nH]cc(Cc3ccc(Nc4ccc(C)nc4)nc3F)c12 [Compound P-4017] ... > 10 µM
O=C(c1cnc(NC2CCC(F)(F)CC2)c(F)c1)c1c[nH]c2ncnc(NCC(F)(F)F)c12 [Compound P-4052] ... > 10 µM

Inquiry: Report IC50 from CYP3A4(BFC) (Homo sapiens) testing of CCc1ccc(Nc2ccc(Cc3c[nH]c4ncnc(C5CC5)c34)c(F)n2)cn1 [Compound P-4028]
Reply text: > 10 µM

Inquiry: Report IC50 from CYP3A4(BFC) (Homo sapiens) testing of COc1ncnc2[nH]cc(Cc3ccc(Nc4ccc(C5CC5)nc4)nc3F)c12 [Compound P-4004]
Reply text: > 10 µM

----------
biological target: BCR-NTRK3 BaF3 cells (Homo sapiens, UniProt Q16288); construct: fused on or other part: P11274 (Breakpoint cluster region protein); assay: BaF3 BCR-NTRK3 cell proliferation assay (ATPlite); conditions: read-out: Inhibition of Cell Proliferation IC50, BCR/BaF3 TrkC
Sequence (Q16288 whole entry, the tested form may be a part): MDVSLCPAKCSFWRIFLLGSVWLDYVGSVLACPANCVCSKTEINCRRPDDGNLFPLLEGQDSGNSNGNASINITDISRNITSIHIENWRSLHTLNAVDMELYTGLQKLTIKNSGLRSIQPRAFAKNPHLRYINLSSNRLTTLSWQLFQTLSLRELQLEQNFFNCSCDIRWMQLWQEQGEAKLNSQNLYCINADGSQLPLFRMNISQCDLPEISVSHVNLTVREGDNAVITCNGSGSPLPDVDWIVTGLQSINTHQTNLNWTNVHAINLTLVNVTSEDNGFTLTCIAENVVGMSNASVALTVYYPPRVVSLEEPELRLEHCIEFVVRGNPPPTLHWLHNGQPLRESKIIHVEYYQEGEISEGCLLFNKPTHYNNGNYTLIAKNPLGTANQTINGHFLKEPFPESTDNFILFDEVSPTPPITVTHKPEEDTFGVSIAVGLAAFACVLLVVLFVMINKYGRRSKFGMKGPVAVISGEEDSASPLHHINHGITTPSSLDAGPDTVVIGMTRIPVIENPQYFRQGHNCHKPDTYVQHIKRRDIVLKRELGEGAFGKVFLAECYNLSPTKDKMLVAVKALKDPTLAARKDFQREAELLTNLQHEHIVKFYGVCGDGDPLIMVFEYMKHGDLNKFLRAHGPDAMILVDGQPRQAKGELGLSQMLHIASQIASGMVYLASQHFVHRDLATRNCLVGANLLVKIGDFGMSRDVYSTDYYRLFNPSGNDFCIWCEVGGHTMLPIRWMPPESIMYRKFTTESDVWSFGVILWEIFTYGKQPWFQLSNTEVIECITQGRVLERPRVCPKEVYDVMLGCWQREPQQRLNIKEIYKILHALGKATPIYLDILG
pIC50: −log10 of the molar value.
Recorded pIC50, one value per entry.

Inquiry: Recall and state the measured pIC50 for CCOc1ccc(Nc2ccc(Cc3c[nH]c4ncnc(C5CC5)c34)c(F)n2)cn1 .
Reply text: > 8.00

Inquiry: Recall and state the measured pIC50 for COc1cncc(Nc2ccc(C(=O)c3c[nH]c4ncnc(NCC(F)(F)F)c34)c(F)n2)c1 .
Reply text: < 6.00

Inquiry: Recall and state the measured pIC50 for O=C(c1ccc(NC2CCC(F)(F)CC2)nc1)c1c[nH]c2ncnc(NCC(F)(F)F)c12 .
Reply text: > 8.00

Inquiry: Recall and state the measured pIC50 for CNc1ncnc2[nH]cc(C(=O)c3ccc(Nc4cncc(OC)c4)nc3F)c12 .
Reply text: > 7.00

Inquiry: Recall and state the measured pIC50 for CCOc1ccc(Nc2ccc(Cc3c[nH]c4ncnc(C)c34)c(F)n2)cn1 .
Reply text: > 8.00

----------
pIC50: −log10 of the molar value.
Hi! I'm sharing some pIC50 results obtained with CYP1A2 (Homo sapiens).
Sequence (P05177 whole entry): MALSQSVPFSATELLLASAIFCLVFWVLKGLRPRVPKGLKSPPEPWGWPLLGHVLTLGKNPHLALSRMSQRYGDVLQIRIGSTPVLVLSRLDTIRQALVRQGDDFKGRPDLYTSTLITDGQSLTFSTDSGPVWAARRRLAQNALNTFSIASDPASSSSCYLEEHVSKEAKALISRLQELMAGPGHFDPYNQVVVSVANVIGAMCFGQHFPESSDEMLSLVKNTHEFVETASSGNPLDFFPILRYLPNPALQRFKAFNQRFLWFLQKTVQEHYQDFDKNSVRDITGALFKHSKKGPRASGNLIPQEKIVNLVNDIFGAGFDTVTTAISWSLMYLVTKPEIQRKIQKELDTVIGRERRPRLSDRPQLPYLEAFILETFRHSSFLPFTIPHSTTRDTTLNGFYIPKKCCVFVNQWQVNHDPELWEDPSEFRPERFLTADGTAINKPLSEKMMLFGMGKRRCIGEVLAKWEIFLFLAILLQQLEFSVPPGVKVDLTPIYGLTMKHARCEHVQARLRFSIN

Observe how each entry below is paired with its result.
CCn1cc(Nc2ccc(C(=O)c3c[nH]c4ncnc(C5CC5)c34)c(F)n2)cn1 [Compound P-4037] ... < 5.00
Cc1ccc(Nc2ccc(C(=O)c3c[nH]c4ncc(Cl)cc34)c(F)n2)cn1 [Compound P-3044] ... < 5.00
CCCNc1ncnc2[nH]cc(C(=O)c3ccc(Nc4ccc(OC)nc4)nc3F)c12 [Compound P-4068] ... < 5.00

Inquiry: Recall and state the measured pIC50 for COc1ccc(Nc2ccc(C(=O)c3c[nH]c4ncnc(N5CCOCC5)c34)c(F)n2)cn1 [Compound P-4070] .
Reply text: < 5.00

Inquiry: Recall and state the measured pIC50 for CNc1ncnc2[nH]cc(C(=O)c3ccc(Nc4ccc(C)nc4)nc3F)c12 [Compound P-4115] .
Reply text: > 5.30

Inquiry: Recall and state the measured pIC50 for CCn1cc(Nc2ccc(Cc3c[nH]c4ncnc(OCCOC)c34)c(F)n2)cn1 [Compound P-4014] .
Reply text: < 5.00

Inquiry: Recall and state the measured pIC50 for CNc1ncnc2[nH]cc(C(=O)c3ccc(NC4CCCCC4)nc3F)c12 [Compound P-4102] .
Reply text: > 5.30

Inquiry: Recall and state the measured pIC50 for CCc1ccc(Nc2ccc(C(=O)c3c[nH]c4ncnc(N)c34)c(F)n2)cn1 [Compound P-4065] .
Reply text: < 5.00

Inquiry: Recall and state the measured pIC50 for FC1(F)CCC(Nc2ncc(Cc3c[nH]c4ncc(Cl)cc34)cn2)CC1 [Compound P-3004] .
Reply text: < 5.00

Data origin: patent US8901118B2
